Target: T1, Scrambled Y42,52,63(SO3) PSGL-1(42-62) biotin peptide (sulfotyrosine at peptide positions 1, 11 and 22; C-terminal Lys-biotin)
T1 peptide: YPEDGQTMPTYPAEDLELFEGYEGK
Experiment: ELISA, immobilized biotin peptide
endpointLabel: A450nm, 20 nM mAb (A450nm)
Provide only the numeric value, understood in A450nm.

binder	observed
03B01 (antibody, IgG4, V domains shown) VH: QMQLVQSGAEVKKPGASVKVSCRASGYRFSTYAISWVRQAPGQGLEWIGWISTHHGNTKYAQKFQDRVTMTADASTSIAYMELRSLRSDDTAVYYCAAAIGNYWGQGTLVTVSS VL: EIVLTQSPAILSVSPGERASLSCRASQSVSSKLAWYQQKPGQAPRLLIYGASTRATGIPPRFSGSGSGTDFTLTISSLEPEDFAVYYCQQRSNWPLTFGGGTKVEIK	0.04

So for 03B03 (antibody, IgG4, V domains shown) VH: EVQLVQSGGGLVQPGGSLRLSCAATGFTVSRNYMTWVREAPGKGLEWVAGIYKSGTTSYTESVKGRFTISRDNSKNTLYLEMSRLRAEDTAVYYCAKSTSTWGQGTQVTVSS VL: DIVMTQSPLSLPVTLGQPASISCRASQSPGYSDGNTYLNWFQQRPGQSPRRLIYKVSNRDPGVPDRFSGSGSGTDFTLKISRVEAEDVGVYYCMQATHWPSFGQGTRLEIK , the logged A450nm, 20 nM mAb turned out to be 0.04

Just so you know, measured A450nm, 20 nM mAb for 03B04 (antibody, IgG4, V domains shown) VH: EVKLLESGGGLVKPGGSLRLSCAASGFAFSRYTMNWVRQAPGKGLEWVSSISSSSSYIYYADSVKGRFTISRDNAKNSLVLQMNSLRPEDTAVYYCARGGIAANDYWGQGTLVTVSS VL: EIVMTQTPLSLPVTLGQPASISCRSSRNLVHYDGNTYLSWFHQRPGQPPRRLIYKISNRESGVPDRFSGSGSGTDFTLKISRVEAEDVGVYYCLQHTHWPWTFGPGTKVEIK came out at 0.01

In plain terms, 09C10 (antibody, V domains shown) VH: EVKLLESGGGLIQPGGSLRLSCAASGFTVSNNYVTWVRQAPGKGLELVSSIYSGGGTYYADSVKGRFTISRDNSKNTVYLQMNSLRADDTAVYYCARNVPVTNFGYWGQGTLVTVSS VL: DIVMTQSPLSLPVTLGQPASISCRSSQSLVYRDGNTYLNWFQQRPGQSPRRLIYKVSNRDSGVPDRFSGSGSGTDFTLKISRVEAEDVGVYYCMQLTHWPPGFAQGTKLEIK has a documented A450nm, 20 nM mAb of 0.21
